Data credit: patent US9096639B2

target: human progesterone receptor A (Homo sapiens, UniProt P06401); experiment: Progesterone receptor transactivation test in stably transfected SK-N-MC cells (PR-A, MMTV-LUC reporter); details: 0.1 nmol/l promegestone, 24 hours, read-out: PR-A IC50 (antagonistic potency)
Sequence (P06401 165-933): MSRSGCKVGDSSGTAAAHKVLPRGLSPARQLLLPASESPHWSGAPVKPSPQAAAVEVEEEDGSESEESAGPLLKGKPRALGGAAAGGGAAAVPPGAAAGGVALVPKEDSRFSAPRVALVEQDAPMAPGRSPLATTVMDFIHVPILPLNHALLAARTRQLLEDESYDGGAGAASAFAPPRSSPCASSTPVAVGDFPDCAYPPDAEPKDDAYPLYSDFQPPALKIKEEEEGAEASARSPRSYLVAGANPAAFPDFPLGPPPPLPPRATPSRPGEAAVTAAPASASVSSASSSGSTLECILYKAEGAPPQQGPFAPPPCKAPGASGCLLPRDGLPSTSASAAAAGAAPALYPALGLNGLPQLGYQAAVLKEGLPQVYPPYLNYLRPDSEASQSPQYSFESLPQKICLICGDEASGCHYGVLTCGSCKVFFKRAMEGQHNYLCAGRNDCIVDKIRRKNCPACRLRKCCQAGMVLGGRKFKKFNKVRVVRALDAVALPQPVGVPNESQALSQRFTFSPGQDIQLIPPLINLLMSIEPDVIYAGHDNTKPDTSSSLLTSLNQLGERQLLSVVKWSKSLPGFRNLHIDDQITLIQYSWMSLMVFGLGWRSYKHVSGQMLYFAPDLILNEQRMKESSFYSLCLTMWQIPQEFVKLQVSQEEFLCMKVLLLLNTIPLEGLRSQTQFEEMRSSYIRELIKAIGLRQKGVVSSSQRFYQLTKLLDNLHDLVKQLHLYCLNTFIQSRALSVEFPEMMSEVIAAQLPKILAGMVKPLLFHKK
Exercise: state measured IC50 for each of the compounds provided.

Some entries whose results are on file:
1. CC(C)C(=O)OC(C)c1ccc([C@H]2C[C@@]3(C)C(CC[C@@]3(O)C(F)(F)C(F)(F)F)C3CCC4=CC(=O)CCC4=C32)cc1 (mixture of isomers) = 0.1 nM
2. CC(C)CC(=O)OC(C)c1ccc([C@H]2C[C@@]3(C)C(CC[C@@]3(O)C(F)(F)C(F)(F)F)C3CCC4=CC(=O)CCC4=C32)cc1 (mixture of isomers) = 0.21 nM
3. Cc1nccn1CCC(=O)O[C@H](C)c1ccc([C@H]2C[C@@]3(C)[C@@H](CC[C@@]3(O)C(F)(F)C(F)(F)F)[C@@H]3CCC4=CC(=O)CCC4=C32)cc1 (single isomer, unassigned) [Example 14B] = 0.29 nM
4. CC(OC(=O)CC(C)(C)C)c1ccc([C@H]2C[C@@]3(C)C(CC[C@@]3(O)C(F)(F)C(F)(F)F)C3CCC4=CC(=O)CCC4=C32)cc1 (mixture of isomers) = 0.2 nM

Please find the next compound below.
Input line: IC50 for CC(OC(=O)[C@@H](NC(=O)OC(C)(C)C)C(C)C)c1ccc([C@H]2C[C@@]3(C)C(CC[C@@]3(O)C(F)(F)C(F)(F)F)C3CCC4=CC(=O)CCC4=C32)cc1 (mixture of isomers) ?
Output line: 0.3 nM
